What STK11 functional score was measured for each of the following?
B1: library; numbered along this chain (parent)
chain: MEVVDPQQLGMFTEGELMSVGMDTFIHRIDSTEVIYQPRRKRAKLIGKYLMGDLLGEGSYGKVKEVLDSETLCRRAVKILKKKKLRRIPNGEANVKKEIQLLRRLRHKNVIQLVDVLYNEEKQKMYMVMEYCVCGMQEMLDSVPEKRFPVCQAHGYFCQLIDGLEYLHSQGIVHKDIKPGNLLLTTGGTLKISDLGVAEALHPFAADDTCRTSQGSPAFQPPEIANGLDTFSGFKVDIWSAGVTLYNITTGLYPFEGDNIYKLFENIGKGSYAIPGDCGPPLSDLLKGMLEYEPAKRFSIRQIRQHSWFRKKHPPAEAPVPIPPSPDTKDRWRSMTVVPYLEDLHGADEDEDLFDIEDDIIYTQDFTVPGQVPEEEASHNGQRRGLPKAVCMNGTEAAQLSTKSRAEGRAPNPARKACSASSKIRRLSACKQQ

Variants of: B1
Experiment: STK11 functional score (HeLa growth suppression), rescaled enrichment; synonymous median = 1, nonsense median = 0 (normalised score)
Conditions: with HeLa; variant type: missense
Form field (numeric): enter value without unit.

Problem: What value of STK11 functional score has been recorded for this entry: C132F
Result: 0.255

Problem: For the variant N94L , what STK11 functional score is on record?
Result: 0.89

Problem: What does the data say about its STK11 functional score? Entry: E351G
Result: 1.33

Problem: Would you kindly share the measured STK11 functional score for E256Q ?
Result: 1.47

Problem: # STK11 functional score lookup, item G270R
Result: 1.43

Problem: Query (variant): H202A ; field requested: STK11 functional score
Result: 1.17

Problem: For the variant shown here, Y36V , give the reported STK11 functional score.
Result: 0.824

Problem: Query (variant): T367P ; field requested: STK11 functional score
Result: 1.41

Problem: Query (variant): Q305Y ; field requested: STK11 functional score
Result: 1.53

Problem: Record request: STK11 functional score value, item D208Q
Result: 1.58

Problem: Quick check: STK11 functional score of P326A ?
Result: 0.8

Problem: Quick one: STK11 functional score for N94A ?
Result: 0.173

Problem: Recorded STK11 functional score for I161P , please?
Result: 0.918

Problem: So what's the measured STK11 functional score for this one? A406N
Result: 1.58

Problem: Endpoint output: STK11 functional score of Y261A . Value?
Result: 1.25

Problem: Bench note: what STK11 functional score did S232I show?
Result: 1.4

Problem: // lookup STK11 functional score for Q123V
Result: 0.961

Problem: Please give the measured STK11 functional score for this variant: E57Q
Result: 1.06

Problem: Value lookup for STK11 functional score; key = Y118P
Result: 1.3

Problem: Form field: reported STK11 functional score of F366C
Result: 1.09

Problem: Tell me the measured STK11 functional score of V63Q , please.
Result: 0.451

Problem: Give the measured STK11 functional score of K82C .
Result: 1.23

Problem: Would you mind telling me what STK11 functional score value was observed for G394W ?
Result: 1.29

Problem: Request the reported STK11 functional score associated with P149V
Result: 0.694

Problem: Which STK11 functional score reading was recorded for the variant Y246S ?
Result: 0.254

Problem: Need STK11 functional score, item H306E
Result: 1.19

Problem: What does the data say about its STK11 functional score? Entry: Y246H
Result: -0.136

Problem: GET /values?readout=STK11 functional score&item= I88L
Result: 1.24

Problem: Item I238S has what recorded STK11 functional score?
Result: 0.58

Problem: What does the data say about its STK11 functional score? Entry: R405Y
Result: 0.397

Problem: # STK11 functional score lookup, item E349Y
Result: 0.952

Problem: Which STK11 functional score reading was recorded for the variant G268L ?
Result: 1.56

Problem: What value of STK11 functional score has been reported for the following variant? R333D
Result: 1.62

Problem: Give its STK11 functional score value. Item: Q364P
Result: 1.4

Problem: What does the record list as STK11 functional score for I177F ?
Result: 0.54

Problem: Quick one: STK11 functional score of K44M ?
Result: 0.633

Problem: Name the recorded STK11 functional score for K329Y .
Result: 1.15

Problem: Bench note: what STK11 functional score did C151W show?
Result: 0.903

Problem: // STK11 functional score lookup, key: R405S
Result: 1.54

Problem: Item K191V has what recorded STK11 functional score?
Result: 1.19

Problem: Value lookup for STK11 functional score; key = K44D
Result: 0.859

Problem: Consider the variant shown here: K178F What is its recorded STK11 functional score?
Result: 0.35

Problem: Fill in: STK11 functional score of Y246E is ___
Result: 0.0519

Problem: So what's the measured STK11 functional score for this one? S378R
Result: 1.16

Problem: Could you share which STK11 functional score value was measured for G408F ?
Result: 1.24

Problem: What value of measured STK11 functional score is listed for D343I ?
Result: 1.57

Ref: the supplement of paper PMC12338614
